# System: normal human cells (Wi-38)
# assay-explanation: MTT cytotoxicity screening on normal human cells
# Assay type: cell-based
# condition-label: Wi-38 normal human lung fibroblasts, MTT, 72 h; mean ± SEM
Lab note - cut at 10 µM for EC100 (safe concentration at 100% cell viability): Criterion met if strictly below, Criterion not met if not.

smiles-representation | class-name
O=C1SC(=Cc2ccc([N+](=O)[O-])cc2)C(=O)N1CCCO | Criterion not met
O=C1NC(=O)C(=Cc2ccc(O)cc2)S1 | Criterion met
O=C1SC(=Cc2ccc([N+](=O)[O-])cc2)C(=O)N1CCCBr | Criterion not met
O=C1SC(=Cc2ccc(OCCCBr)cc2)C(=O)N1CCCBr | Criterion not met
CN(C)c1ccc(C=C2SC(=O)N(CCCBr)C2=O)cc1 | Criterion not met
O=C1N=C(O)SC1=Cc1ccccc1 | Criterion not met

# next molecule below
Request: Does the reported EC100 (safe concentration at 100% cell viability) of CCOC(=O)CN1C(=O)SC(=Cc2ccc(N(C)C)cc2)C1=O stay below 10 µM?
Response: Criterion not met
